target: L-type voltage-dependent Ca2+ channel (Homo sapiens, UniProt O60840+Q01668+Q13698+Q13936); test: Inhibition of L-type voltage-dependent Ca2+ channel at 1 uM
readout.label: inhibition at 1 µM (%)

>>> quantitative_readout("COC(=O)C1=C(C)N=C(C)/C(=C(/O)OC)C1c1c(F)cccc1Cl (stereo unspecified)")
100
>>> quantitative_readout("CCOC(=O)C1=C(C)NC(C)=C(C(=O)OCC)C1c1ccc(F)cc1")
98.6
>>> quantitative_readout("CCOC(=O)C1=C(C)NC(C)=C(C(=O)OCC)C1c1ccc(Br)cc1")
27.1
>>> quantitative_readout("COC(=O)C1=C(C)NC(C)=C(C(=O)OC)C1c1ccccc1")
70.5

P = CCOC(=O)C1=C(C)NC(C)=C(C(=O)OC)C1c1ccccc1 (stereo unspecified)
Q = CCOC(=O)C1=C(C)NC(C)=C(C(=O)OCC)C1c1ccc(OC)cc1
Asked: Which value of inhibition at 1 µM is numerically greater: that of P or that of Q ? Reply with the label of the item you choose.
Given back: P
